Data origin: the supplement of paper PMC10307832

- Test system: LK-2
- test details: relative viability (nuclei count vs DMSO), 5 days (fraction); higher = more cells survive
- assay setup: first compound 0.4 µM
The entries below are paired with their reported relative viability.

compound	relative viability
O=C(O)c1ccc(-c2c[nH]c3ncc(-c4ccccc4)cc23)cc1C1CCCC1 + N=C(N)NC(=N)NCCc1ccccc1 [Phenformin] (partner 250 µM)	0.377

// field: relative viability; key: O=C(O)c1ccc(-c2c[nH]c3ncc(-c4ccccc4)cc23)cc1C1CCCC1 + Cc1nc(NC(=O)N2CCC[C@H]2C(N)=O)sc1-c1ccnc(C(C)(C)C(F)(F)F)c1 [Alpelisib] (partner 2 µM) ; value = 1.19

// field: relative viability; key: O=C(O)c1ccc(-c2c[nH]c3ncc(-c4ccccc4)cc23)cc1C1CCCC1 + Cc1cc(Nc2cc(N3CCN(C)CC3)nc(Sc3ccc(NC(=O)C4CC4)cc3)n2)n[nH]1 [Tozasertib] (partner 0.1 µM) ; value = 0.181

// field: relative viability; key: O=C(O)c1ccc(-c2c[nH]c3ncc(-c4ccccc4)cc23)cc1C1CCCC1 + CC(=O)c1c(C)c2cnc(Nc3ccc(N4CCNCC4)cn3)nc2n(C2CCCC2)c1=O [Palbociclib] (partner 0.5 µM) ; value = 0.771

// field: relative viability; key: O=C(O)c1ccc(-c2c[nH]c3ncc(-c4ccccc4)cc23)cc1C1CCCC1 + CC(=O)Nc1cccc(-n2c(=O)n(C3CC3)c(=O)c3c(Nc4ccc(I)cc4F)n(C)c(=O)c(C)c32)c1 [Trametinib] (partner 0.02 µM) ; value = 0.599
